experiment summary: Therapeutic study: hematological parameters; note: test concentration or dose not given here
Assay type: in vivo, Wistar strain albino rats
settings: HFD continued, day 0
value kind: Platelet count

Given the compound CC(C)c1c(C(=O)Nc2ccccc2)c(-c2ccccc2)c(-c2ccc(F)cc2)n1CC[C@@H](O)C[C@@H](O)CC(=O)O , write its reported Platelet count. 1070 10³/µL

----------
experiment summary: Therapeutic study: hematological parameters; note: test concentration or dose not given here
Format: in vivo, Wistar strain albino rats
settings: HFD continued, day 15
value kind: Monocyte (%)
API: value field is a number in %; no unit string.

State its Monocyte for this compound: CC(C)c1c(C(=O)Nc2ccccc2)c(-c2ccccc2)c(-c2ccc(F)cc2)n1CC[C@@H](O)C[C@@H](O)CC(=O)O 1.35

Data credit: patent US20230270804A1
